Provide the recorded ORAC for the entries that follow.
- protocolNotes: Oxygen radical absorbance capacity (ORAC) assay
- measurementParameters: Trolox equivalents; mean ± SEM, n = 3; NA = not active at the test concentrations
# do not omit the unit; it follows the number

Any idea what its ORAC is? The molecule is COC1c2cc(C(C)C)c(O)c(O)c2C23CCCC(C)(COC(C)=O)C2C1OC3=O (stereo not shown)
735.4 ± 2.0 µmole TE/g

Any idea what its ORAC is? The molecule is COc1c(C(C)C)cc2c(c1O)[C@@]1(C(=O)O)CCC[C@](C)(COC(C)=O)C1CC2 (stereo partly shown)
2588.2 ± 10.1 µmole TE/g

Any idea what its ORAC is? The molecule is O=C(O[C@@H]1Cc2c(O)cc(O)cc2O[C@@H]1c1cc(O)c(O)c(O)c1)c1cc(O)c(O)c(O)c1 [EGCG, Epigallocatechingallate, reference compound]
3976.8 ± 3.8 µmole TE/g

Any idea what its ORAC is? The molecule is COc1c(C(C)C)cc2c(c1O)[C@]13CCC[C@](C)(C(O)OC1=O)C3CC2 (stereo partly shown) [Compound 6, clinopodiolide B]
1502.5 ± 21.2 µmole TE/g

Any idea what its ORAC is? The molecule is COc1c(C(C)C)cc2c(c1O)C13CCCC(C)(COC(C)=O)C1CC2OC3=O (stereo not shown)
559.7 ± 15.2 µmole TE/g

Give measured ORAC for every item shown.
1. COC1c2cc(C(C)C)c(O)c(O)c2C23CCC(OC(C)=O)C(C)(C)C2C1OC3=O (stereo not shown)
2. CC(C)c1cc2c(c(O)c1O)[C@]13CCC[C@](C)(C(O)OC1=O)C3CC2 (stereo partly shown) [Compound 5, clinopodiolide A]

1: 2233.9 ± 8.0 µmole TE/g; 2: 2357.2 ± 0.1 µmole TE/g

Taken from paper PMC6827013.
